// reported koff for each item listed
Target: T1, human transferrin receptor (recombinant, for surface plasmon resonance) (human, UniProt P02786 89-760)
T1 construct: also called huTfR; human transferrin receptor-biotinylated
T1 sequence (P02786 89-760 limits assumed): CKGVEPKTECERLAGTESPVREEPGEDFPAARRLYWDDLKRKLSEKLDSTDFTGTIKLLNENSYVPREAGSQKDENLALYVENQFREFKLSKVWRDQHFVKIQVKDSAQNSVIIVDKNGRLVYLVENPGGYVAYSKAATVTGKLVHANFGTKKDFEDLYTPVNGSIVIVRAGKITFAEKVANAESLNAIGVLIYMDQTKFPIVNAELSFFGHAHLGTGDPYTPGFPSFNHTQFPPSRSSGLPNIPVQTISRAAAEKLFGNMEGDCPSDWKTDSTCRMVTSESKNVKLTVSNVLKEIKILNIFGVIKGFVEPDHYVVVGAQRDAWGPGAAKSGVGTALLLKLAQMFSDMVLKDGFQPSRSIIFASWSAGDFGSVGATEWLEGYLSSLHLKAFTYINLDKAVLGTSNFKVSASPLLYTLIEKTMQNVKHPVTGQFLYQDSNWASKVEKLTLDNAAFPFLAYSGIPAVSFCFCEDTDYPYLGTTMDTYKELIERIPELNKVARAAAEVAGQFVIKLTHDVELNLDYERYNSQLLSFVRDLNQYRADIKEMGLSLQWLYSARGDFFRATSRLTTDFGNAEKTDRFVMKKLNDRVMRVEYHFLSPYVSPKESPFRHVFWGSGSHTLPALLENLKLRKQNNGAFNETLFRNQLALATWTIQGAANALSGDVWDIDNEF
Assay: SPR 25C
Kindly provide the numeric value in s⁻¹ only, without the unit symbol.

These solved cases illustrate the format of a correct answer.
Request: Output measured koff for this item: 2/99 VH8/VL14 (antibody, V domains shown) VH: QQLVETGGGLIQPGGSLRLSCAASGFSLSSYAMSWVRQAPGKGLEWIGYIWSGGSTDYASWAKGRFTISKTSTTLYLQMNSLRAEDTAVYYCARRYGTSYPDYGDANGFDPWGQGTLVTVSS VL: DIVMTQSPDSLAVSLGERATINCKSSQSISSYLSWYQQKPGQRPKLLIYRASTLASGVPDRFSGSGSGTDFTLTISSLQAEDVAVYYCQQSYSSSNVDNTFGGGTKVEIK
Result: 0.00104

Request: Consider the binder 2/99 VH22/VL10 (antibody, V domains shown) VH: QSMQESGPGLVKPSQTLSLTCTVSGFSLSSYAMSWVRQHPGKGLEWIGYIWSGGSTDYASWAKSRVTISVDTSKNQVSLKLSSVTAADTAVYYCARRYGTSYPDYGDANGFDPWGQGTLVTVSS VL: DIQMTQSPSSLSASVGDRVTITCRASQSISSYLSWYQQKPGKAPKLLIYRASTLASGVPSRFSGSRSGTDFTLTISSLQPEDFATYYCQQSYSSSNVDNTFGGGTKVEIK and give its recorded koff.
Result: 0.00209

Request: Kindly indicate its recorded koff. Item: 2/99 VH8/VL10 (antibody, V domains shown) VH: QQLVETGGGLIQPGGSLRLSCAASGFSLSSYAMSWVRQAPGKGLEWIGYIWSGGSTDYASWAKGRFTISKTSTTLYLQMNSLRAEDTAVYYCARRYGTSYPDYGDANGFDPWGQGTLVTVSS VL: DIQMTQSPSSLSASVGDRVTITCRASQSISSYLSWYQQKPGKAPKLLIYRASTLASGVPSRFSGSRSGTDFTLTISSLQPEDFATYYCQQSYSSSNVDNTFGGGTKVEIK
Result: 0.00173

Request: Read the entry 2/99 VH21/VL17 (antibody, V domains shown) VH: QSMQESGPGLVKPSQTLSLTCTVSGFSLSSYAMSWIRQHPGKGLEWIGYIWSGGSTDYASWAKSRVTISVDTSKNQVSLKLSSVTAADTAVYYCARRYGTSYPDYGDANGFDPWGQGTLVTVSS VL: AIQLTQSPSSLSASVGDRVTITCRASQSISSYLAWYQQKPGKAPKLLIYRASTLASGVPSRFSGSGSGTDFTLTISSLQPEDFATYYCQQTYSSSNVDNTFGGGTKVEIK and write its reported koff.
Result: 0.000997

Request: Tell me koff reported for 2/99 VH20/VL1 (antibody, V domains shown) VH: QSMQESGPGLVKPSQTLSLTCTVSGFSLSSYAMSWIRQHPGKGLEWIGYIWSGGSTDYAPSLKSRVTISVDTSKNQVSLKLSSVTAADTAVYYCARRYGTSYPDYGDANGFDPWGQGTLVTVSS VL: DIQMTQSPSSLSASVGDRVTITCRASQSISSYLNWYQQKPGKAPKLLIYRASSLQSGVPSRFSGSGSGTDFTLTISSLQPEDFATYYCQQSYSSSNVDNTFGGGTKVEIK
Result: 0.001

Consider the record given below.
Request: Please report koff for the following binder: 2/99 VH11/VL7 (antibody, V domains shown) VH: QQLLESGGGLVQPGGSLRLSCAASGFSLSSYAMSWVRQAPGKGLEWVGYIWSGGSTDYADSVKGRFTISRDNSKNTLYLQMNSLRAEDTAVYYCARRYGTSYPDYGDANGFDPWGQGTLVTVSS VL: AIQLTQSPSSLSASVGDRVTITCRASQSISSYLAWYQQKPGKAPKLLIYRASTLASGVPSRFSGSGSGTDFTLTISSLQPEDFATYYCQQSYSSSNVDNTFGGGTKVEIK
Result: 0.00781

All values here come from patent US20180291110A1.
